Read-out: CYP4A11 (gene 1579)
method_description: LTEA_HepaRG_CYP4A11: Life Technologies and Expression Analysis (LTEA) Assay for CYP4A11 using HepaRG (AID 2283486)
assay_conditions: mRNA level, 48 h; actives raise or lower the signal
Protocol: LTEA_HepaRG is a cell based, multiplexed-readout assay that uses HepaRG, a human liver cell line, with measurements taken at 48 hours after chemical dosing on a 96-well plate.LTEA_HepaRG_CYP4A11 is one of 102 assay component(s) measured in the LTEA HepaRG cell culture assay. It is a marker of NR mediated metabolism.Data from the assay component LTEA_HepaRG_CYP4A11 was analyzed into 1 endpoint. […]
Calls of active or inactive are those of the source. How the source made its calls: active means hit-call score of the fitted dose curve at least 0.9, where 1 is the maximum; inactive means score below 0.9.
Outcomes: y (active), n (inactive)

Oc1ccc(C(c2ccc(O)cc2)C(Cl)(Cl)Cl)cc1 ... y
CCN(CC)C(=O)c1cccc(C)c1 ... n
CCOC(=O)C(C)Oc1ccc(Oc2nc3ccc(Cl)cc3o2)cc1 (configuration not stated) ... n
CC(C)(c1ccc(O)cc1)c1ccc(O)cc1 ... n
CCCN(CCC)C(=O)SCC ... n
CCCN(CCC)c1c([N+](=O)[O-])cc(C(F)(F)F)c(N)c1[N+](=O)[O-] ... y
COc1c(Cl)ccc(Cl)c1C(=O)O ... n
COC(=O)CSc1cc(N=c2sc(=O)n3n2CCCC3)c(F)cc1Cl ... n
CSC(=O)c1cccc2nnsc12 ... n
CCCCCOC(=O)COc1cc(N2C(=O)C3=C(CCCC3)C2=O)c(F)cc1Cl ... n
OB(O)O ... n
CCCCCCC(C)OC(=O)COc1nc(F)c(Cl)c(N)c1Cl (configuration not stated) ... n
CCSC(=O)N(CC(C)C)CC(C)C ... n
CCCCOC(=O)[C@@H](C)Oc1ccc(Oc2ccc(C(F)(F)F)cn2)cc1 ... n
CC(=O)[C@H]1CC[C@H]2[C@@H]3CCC4=CC(=O)CC[C@]4(C)[C@H]3CC[C@]12C ... y
CCCCOC(=O)C(C)Oc1ccc(Oc2ccc(C(F)(F)F)cn2)cc1 (configuration not stated) ... n
Cc1nn(C)c(Oc2ccccc2)c1C=NOCc1ccc(C(=O)OC(C)(C)C)cc1 ... y
CC(C)CCCCCCc1ccc(O)cc1 ... n
CC1(C)C(C=C(Cl)Cl)C1C(=O)OCc1cccc(Oc2ccccc2)c1 (configuration not stated) ... n
CC(C)(C)[C@@H](O)[C@@H](Cc1ccc(Cl)cc1)n1cncn1 ... y
CCC(C)OC(=O)N1CCCCC1CCO (configuration not stated) ... n
CCCCC(CC)CN1C(=O)C2C3C=CC(C3)C2C1=O (configuration not stated) ... y

---

Read-out: Interleukin-6 (IL6), IL6 (gene 3569)
method_description: BSK_CASM3C_IL6: BioMAP Diversity Plus: CASM3C Assay for Interleukin-6 (IL6) Biomarker Activity for (AID 2283040)
assay_conditions: primary human coronary artery smooth muscle cells; actives raise or lower the signal
Activity calls are given as the source filed them. The calls were made as follows: active = hit-call score of the fitted dose curve at least 0.9, where 1 is the maximum; inactive = score below 0.9.
measured_endpoint: AC50

CCOC(=O)C(C)Oc1ccc(Oc2nc3ccc(Cl)cc3o2)cc1 (stereo not given) ... inactive
CCCN(CCC)c1c([N+](=O)[O-])cc(C(F)(F)F)c(N)c1[N+](=O)[O-] ... inactive
C[C@]12C[C@H](O)[C@H]3[C@@H](CCC4=CC(=O)CC[C@@]43C)[C@@H]1CC[C@@H]2C(=O)CO ... 0.447 µM (active)
CCOC(=O)C(C)Oc1ccc(Oc2cnc3cc(Cl)ccc3n2)cc1 (stereo not given) ... inactive
COC(=O)c1ccc(CNS(C)(=O)=O)cc1S(=O)(=O)NC(=O)Nc1nc(OC)cc(OC)n1 ... inactive
CC(C)(C)[C@@H](O)[C@@H](Cc1ccc(Cl)cc1)n1cncn1 ... inactive
CCCCCOC(=O)COc1cc(N2C(=O)C3=C(CCCC3)C2=O)c(F)cc1Cl ... inactive
CC1(C)C(C=C(Cl)Cl)C1C(=O)OCc1cccc(Oc2ccccc2)c1 (stereo not given) ... 6.26 µM (active)
CN(C)C(=O)Nc1ccc(Cl)c(Cl)c1 ... inactive
COC(=O)c1ccccc1C(=O)O ... inactive

---

Read-out: Cytochrome P450 (CYP1A1), CYP1A1 (gene 1543)
method_description: LTEA_HepaRG_CYP1A1: Life Technologies and Expression Analysis (LTEA) Assay for Cytochrome P450 (CYP1A1) using HepaRG (AID 2283454)
assay_conditions: mRNA level, 48 h; actives raise or lower the signal
Calls of active or inactive are those of the source. Rule for the calls: active = hit-call score of the fitted dose curve at least 0.9, where 1 is the maximum; inactive = score below 0.9.
Outcome codes: active, inactive

CC(=O)[C@H]1CC[C@H]2[C@@H]3CCC4=CC(=O)CC[C@]4(C)[C@H]3CC[C@]12C ... active
CCCCCCC(C)OC(=O)COc1nc(F)c(Cl)c(N)c1Cl (stereo not given) ... inactive
CCOC(=O)COc1cc(-n2ncc(C(F)(F)F)c(C)c2=O)c(F)cc1Cl ... active
CCSC(=O)N(CC(C)C)CC(C)C ... active
CCCCC(CC)COC(=O)c1ccccc1C(=O)O (stereo not given) ... active
OB(O)O ... inactive
CCOC(=O)c1ccc(O)cc1 ... inactive
CCCN(CCC)c1c([N+](=O)[O-])cc(C(F)(F)F)c(N)c1[N+](=O)[O-] ... active
CC(C)(C)[C@@H](O)[C@@H](Cc1ccc(Cl)cc1)n1cncn1 ... active
COC(=O)CSc1cc(N=c2sc(=O)n3n2CCCC3)c(F)cc1Cl ... active
CCCCOC(=O)[C@@H](C)Oc1ccc(Oc2ccc(C(F)(F)F)cn2)cc1 ... active
O=C(O)C1(C(=O)Nc2ccc(Cl)cc2Cl)CC1 ... active
COCCO ... inactive
O=C(Nc1ccc([N+](=O)[O-])cc1Cl)c1cc(Cl)ccc1O ... active
Oc1ccc(C(c2ccc(O)cc2)C(Cl)(Cl)Cl)cc1 ... inactive
CC(C)CCCCCCc1ccc(O)cc1 ... active
CCN(Cc1c(F)cccc1Cl)c1c([N+](=O)[O-])cc(C(F)(F)F)cc1[N+](=O)[O-] ... active
COC(=O)c1ccc(I)cc1S(=O)(=O)NC(=O)Nc1nc(C)nc(OC)n1 ... active
CCOC(=O)C(C)Oc1ccc(Oc2nc3ccc(Cl)cc3o2)cc1 (stereo not given) ... active
S=C([S-])NCCNC(=S)[S-].[Mn+2] ... active
CCCCOCCOCCOCc1cc2c(cc1CCC)OCO2 ... active
CCN(CC)C(=O)c1cccc(C)c1 ... active
C#C[C@]1(O)CC[C@H]2[C@@H]3CCC4=CC(=O)CC[C@@H]4[C@H]3CC[C@@]21CC ... inactive
c1ccc(Nc2ccccc2)cc1 ... inactive
O=C(c1ccccc1)C1CCCCC1 ... inactive

---

Read-out: Early growth response protein 1 (EGR1) transcription factor, EGR1 (gene 1958)
method_description: LTEA_HepaRG_EGR1: Life Technologies and Expression Analysis (LTEA) Assay for Early growth response protein 1 (EGR1) transcription factor using HepaRG (AID 2283490)
assay_conditions: mRNA level, 48 h; actives raise or lower the signal
Activity calls are given as the source filed them. How the source made its calls: active means hit-call score of the fitted dose curve at least 0.9, where 1 is the maximum; inactive means score below 0.9.
Outcome codes: active, inactive

C=CCOC(Cn1ccnc1)c1ccc(Cl)cc1Cl (centres undefined) ... inactive
C[C@]12C[C@H](O)[C@H]3[C@@H](CCC4=CC(=O)CC[C@@]43C)[C@@H]1CC[C@@H]2C(=O)CO ... inactive
CCN(CC)C(=O)c1cccc(C)c1 ... inactive
CCOC(=O)COc1cc(-n2ncc(C(F)(F)F)c(C)c2=O)c(F)cc1Cl ... inactive
CCCOC(=O)c1ccc(C(=O)OCCC)nc1 ... inactive
C[C@]12CC[C@@H]3c4ccc(O)cc4C[C@@H](CCCCCCCCCS(=O)CCCC(F)(F)C(F)(F)F)[C@H]3[C@@H]1CC[C@@H]2O (some centres undefined) ... active
CCNc1nc(N)nc(Cl)n1 ... inactive
CCC(C)OC(=O)N1CCCCC1CCO (centres undefined) ... inactive
CC(C)(C)[C@@H](O)[C@@H](Cc1ccc(Cl)cc1)n1cncn1 ... inactive
COC(=O)c1ccc(I)cc1S(=O)(=O)NC(=O)Nc1nc(C)nc(OC)n1 ... inactive
N#CSCSc1nc2ccccc2s1 ... inactive
CC(C)(c1ccc(O)cc1)c1ccc(O)cc1 ... inactive
O=C(O)C1(C(=O)Nc2ccc(Cl)cc2Cl)CC1 ... active
CCCCCOC(=O)COc1cc(N2C(=O)C3=C(CCCC3)C2=O)c(F)cc1Cl ... inactive
CN(C)C(=O)Nc1ccc(Cl)c(Cl)c1 ... inactive
O=C(c1ccc(O)cc1O)c1ccc(O)cc1O ... inactive
CCCCOC(=O)[C@@H](C)Oc1ccc(Oc2ccc(C(F)(F)F)cn2)cc1 ... inactive
CC1(C)C(C=C(Cl)Cl)C1C(=O)OCc1cccc(Oc2ccccc2)c1 (centres undefined) ... inactive
COc1c(Cl)ccc(Cl)c1C(=O)O ... inactive
CCCCC(CC)COC(=O)c1ccccc1C(=O)O (centres undefined) ... inactive
CCN(Cc1c(F)cccc1Cl)c1c([N+](=O)[O-])cc(C(F)(F)F)cc1[N+](=O)[O-] ... inactive
Oc1ccc(C(c2ccc(O)cc2)C(Cl)(Cl)Cl)cc1 ... active
C#C[C@]1(O)CC[C@H]2[C@@H]3CCC4=CC(=O)CC[C@@H]4[C@H]3CC[C@@]21CC ... inactive
CSC(=O)c1cccc2nnsc12 ... inactive
